Known protein stability index of a selection of variants
B1: TSN (parent)
chain: AFVVYLETETLVTREAVTEILGIE

- Variants of: B1
- Protocol Summary: protein stability index of a GFP-peptide fusion (GPS, HEK-293T) (PSI 1-6); higher = more stable;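 also: lentivirally expressed fusions sorted by FACS into six bins by GFP to DsRed ratio, PSI derived from sequencing read proportions per bin multiplied by bin number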
- Test Settings: c terminus: a fixed tail appended
Readout: protein stability index

- R14A: 3.41
- A1R: 4.12
- T10R: 2.22
- T18N: 4.21
- V17Y: 3.6
- A16W: 3.37
- L11Q: 3.4
- G22P: 2.86
- T10V: 2.5
- E7G: 2.77
- I23H: 2.75
- T13F: 3.68
- V12H: 2.21
- L21N: 2.64
- V4H: 2.19
- E7H: 3.41
- F2A: 1.97
- R14E: 1.43
- T13N: 1.72
- E24K: 3.34
- I23K: 1.55
- L6R: 1.24
- F2S: 2.36
- T13I: 1.31
- F2G: 1.88
- E15H: 1.85
- L6G: 1.77
- R14H: 3.6
- A1E: 3.39
- E19L: 3.65
- T18Q: 3.84
- V4T: 1.13
- Y5H: 1.59
- T8H: 3.17
- Y5C: 2.94
- F2I: 2.72
- V3Q: 2.75
- I20W: 2.75
- V17A: 2.01
- Y5E: 2.73
- A1T: 2.55
- F2R: 1.72
- I20D: 1.6
- A1S: 2.71
- V17D: 2.61
- T18A: 2.74
